Recorded CP-DAA IC50 values for a group of binders are listed next.
substrate: CP C3-convertase (C4b2a) (Homo sapiens (Human)) (UniProt P0C0L4)
Report the value in nM with no unit label.

Previously resolved entries follow.
binder	measurement.units	CP-DAA IC50
D2D3M3M4 (Multi-1) (protein) CEVPTRLNSASLKQPYITQNYFPVGTVVEYECRPGYRREPSLSPKLTCLQNLKWSTAVEFCKKKSCPNPGEIRNGQIDVPGGILFGATISFSCNTGYKLFGSTSSFCLISGSSVQWSDPLPICEKVLCTPPPKIKNGKHTFSEVEVFEYLDAVTYSCDPAPGPDPFSLIGESTIYCGDNSVWSRAAPECKVVKCRFPVVENGKQISGFGKKFYYKATVMFECDKGFYLDGSDTIVCDSNSTWDPPVPKCLKVL	nM	22.6
D2D3M3M4 (S199K) (protein) CEVPTRLNSASLKQPYITQNYFPVGTVVEYECRPGYRREPSLSPKLTCLQNLKWSTAVEFCKKKSCPNPGEIRNGQIDVPGGILFGATISFSCNTGYKLFGKTSSFCLISGSSVQWSDPLPECREIYCTPPPKIKNGKHTFSEVEVFEYLDAVTYSCDPAPGPDPFSLIGESTIYCGDNSVWSRAAPECKVVKCRFPVVENGKQISGFGKKFYYKATVMFECDKGFYLDGSDTIVCDSNSTWDPPVPKCLKVL	nM	21.7

For the binder D2M2-4 (protein) CEVPTRLNSASLKQPYITQNYFPVGTVVEYECRPGYRREPSLSPKLTCLQNLKWSTAVEFCKKKSCPYIRDPLNGQAVPANGTYEFGYQMHFICNEGYYLIGEEILYCELKGSVAIWSGKPPICEKVLCTPPPKIKNGKHTFSEVEVFEYLDAVTYSCDPAPGPDPFSLIGESTIYCGDNSVWSRAAPECKVVKCRFPVVENGKQISGFGKKFYYKATVMFECDKGFYLDGSDTIVCDSNSTWDPPVPKCLKVL , report CP-DAA IC50.
457

These measurements were taken from patent US12662524B2.
